# target system: human APJ receptor (Homo sapiens (Human))
# Sequence (P35414 whole entry): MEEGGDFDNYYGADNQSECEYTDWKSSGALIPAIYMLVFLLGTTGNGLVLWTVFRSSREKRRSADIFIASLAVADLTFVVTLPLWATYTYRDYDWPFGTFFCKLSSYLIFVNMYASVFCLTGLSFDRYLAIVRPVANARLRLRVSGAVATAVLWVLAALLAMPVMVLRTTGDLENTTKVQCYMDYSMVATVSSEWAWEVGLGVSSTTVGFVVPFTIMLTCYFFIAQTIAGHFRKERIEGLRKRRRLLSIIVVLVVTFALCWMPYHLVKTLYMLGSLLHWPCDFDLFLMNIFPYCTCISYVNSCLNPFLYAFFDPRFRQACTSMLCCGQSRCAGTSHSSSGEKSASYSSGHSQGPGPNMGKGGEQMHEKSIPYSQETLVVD
# method description: Intracellular cAMP accumulation assay (APJ hcAMP, HTRF)
# Type: cell-based
# measurement context: HEK293 cells stably expressing human APJ receptor; inhibition of forskolin-mediated cAMP production; read-out: hAPJ cAMP EC50 Potency range
# Experimental: Intracellular cAMP Accumulation Assay HEK293 cells stably expressing human APJ receptor were used to assess the activity of compounds. Cultured cells were detached and resuspended in the cAMP Homogeneous Time-Resolved Fluorescence (HTRF) assay buffer (Cisbio cat; #62AM4PEJ). The assay was performed in 384-well assay plates (Perkin-Elmer; cat #6008289) according to assay protocol provided by the manufacturer. […] The fluorescence emission ratio was measured using fluorometer. […]
quantity: EC50

mol	observed result
CCCCc1nc(O)c(-c2nnc(CC(=O)NCCOC)o2)c(O)c1-c1c(OC)cccc1OC	10 to 100 nM
CCCCc1nc(O)c(-c2nnc(CNC(=O)C(C)(C)C)o2)c(O)c1-c1c(OC)cccc1OC	0.01 to 10 nM
CCCCc1nc(O)c(-c2nnc(Cc3ccc(F)c(F)c3)o2)c(O)c1-c1c(OC)cccc1OC	0.01 to 10 nM
CCCCc1nc(O)c(-c2nnc(CN3CCCC3=O)o2)c(O)c1-c1c(OC)cccc1OC	0.01 to 10 nM
C=CCCc1nc(O)c(-c2nnc(Cc3ccccc3)o2)c(O)c1-c1c(OC)cccc1OC	10 to 100 nM
CCCCc1nc(O)c(-c2nnc(Cc3ccc(C#N)cc3)o2)c(O)c1-c1c(OC)cccc1OC	0.01 to 10 nM
CCCCc1nc(O)c(-c2nnc(CC(=O)N3CC(F)(F)C3)o2)c(O)c1-c1c(OC)cccc1OC	0.01 to 10 nM
CCCCc1nc(O)c(-c2nnc(Cc3ccc(OC(F)(F)F)cc3)o2)c(O)c1-c1c(OC)cccc1OC	0.01 to 10 nM
CCOCc1nc(O)c(-c2nnc(Cc3csc(C)n3)o2)c(O)c1-c1c(OC)cccc1OC	0.01 to 10 nM
CCCCc1nc(O)c(-c2nnc(CN(C)C(=O)c3ccccn3)o2)c(O)c1-c1c(OC)cccc1OC	0.01 to 10 nM
CCCCc1nc(O)c(-c2nnc(CC3CCCCC3)o2)c(O)c1-c1c(OC)cccc1OC	0.01 to 10 nM
CCCCc1nc(O)c(-c2nnc(Cc3ccc(F)c(F)c3)o2)c(O)c1-c1cccc(C(=O)NC(C)C)c1	10 to 100 nM
CCCCc1nc(O)c(-c2nnc(CCc3nc(-c4ccccn4)no3)o2)c(O)c1-c1c(OC)cccc1OC	0.01 to 10 nM
CCCCc1[nH]c(=O)c(-c2nnc(Cc3csc(C)n3)o2)c(O)c1-c1cccc(OC)c1	0.01 to 10 nM
CCCCc1nc(O)c(-c2nnc(Cc3ccc(Cl)cc3Cl)o2)c(O)c1-c1c(OC)cccc1OC	0.01 to 10 nM
CCCCc1nc(O)c(-c2nnc(Cc3nc(-c4ccccc4)oc3C)o2)c(O)c1-c1c(OC)cccc1OC	0.01 to 10 nM
CCCCc1nc(O)c(-c2nnc(CNC(=O)c3ccccn3)o2)c(O)c1-c1c(OC)cccc1OC	0.01 to 10 nM
CCCCc1nc(O)c(-c2nnc(Cc3nnc(-c4ccncc4)o3)o2)c(O)c1-c1c(OC)cccc1OC	0.01 to 10 nM
CCCCc1[nH]c(=O)c(-c2nnc(Cc3csc(C)n3)o2)c(O)c1-c1cccc(N2CCCC2)c1	10 to 100 nM
CCCCc1nc(O)c(-c2nnc(Cc3cncs3)o2)c(O)c1-c1c(OC)cccc1OC	100 to 300 nM
